- target.entity: peripheral benzodiazepine receptor (PBR) (Rattus norvegicus, UniProt P16257)
- Construct: from tissue; host or cells: rat brain (hippocampus, cerebellum) after i.v. tracer injection
- experiment: Ex vivo autoradiography of brain sections, rat kainic acid induced epilepsy model
- Assay type: in vivo
- measurement.context: rat kainic acid model, 30 min ex vivo autoradiography
quantity.kind: Hipp/Cereb ratio (signal-to-background ratio, hippocampus/cerebellum)

COc1ccc(OCCF)c(CN(C(C)=O)c2cccnc2Oc2cccc(C)c2C)c1 [[^19F]-5e]; 5.6

A = COc1ccc(OCC[18F])c(CN(C(C)=O)c2cc(F)ccc2Oc2ccccc2)c1 [[^18F]-FEDAA1106, reference compound]
B = COc1ccc(OCC[18F])c(CN(C(C)=O)c2cccnc2Oc2cccc(C)c2C)c1 [[^18F]-5d]
C = COc1ccc(Oc2ncccc2N(Cc2cc(OC)ccc2OCC[18F])C(C)=O)cc1 [[^18F]-2d]
Input: Ascending by Hipp/Cereb ratio (signal-to-background ratio, hippocampus/cerebellum), please: list the molecules accordingly. Write the labels, ordered according to the request.
Output: A, B, C
